system: washed platelets; assay: PAR4 agonist peptide induced platelet aggregation assay (washed platelets); format: cell-based, human; conditions: agonist activity
Listing of entries alongside the reported ED50 (μM) [Platelet Aggregation].
Give just the number in µM; leave the unit off.

INSERT INTO assay_data (compound, observed_measurement) VALUES
  ('COc1ccc(-c2nc(COc3cc(OC)cc4oc(-c5cn6nc(OC)sc6n5)cc34)cs2)cc1 [Example 18]', 5.5);

Reported ED50 (μM) [Platelet Aggregation] for COc1cc(OCc2cscn2)c2cc(-c3cn4nc(OC)sc4n3)oc2c1 [Example 34] : what is it? 3.0

Try this compound next: COc1cc(OCc2csc(-c3cccnc3)n2)c2cc(-c3cn4nc(OC)sc4n3)oc2c1 [Example 30] 1.7

Try this compound next: COc1cc(OCc2csc(-c3ccc(OC(F)(F)F)cc3)n2)c2cc(-c3cn4nc(OC)sc4n3)oc2c1 [Example 29] 1.0

Try this compound next: COc1cc(OCc2csc(-c3ccccc3OC)n2)c2cc(-c3cn4nc(OC)sc4n3)oc2c1 [Example 19] 1.6

Source of measurements: patent US9605024B2
